# Assay Details: NCI Yeast Anticancer Drug Screen. Data for the rad50 strain (AID 155);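 further: 0% = growth of vehicle-only cultures of the same strain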
# Particulars: S. cerevisiae rad50 strain growth inhibition; at 50.0 µM
About 79,000 compounds went through this panel and 15% of them were active in at least one assay; those are over-represented in the sample as a whole. The source made the active and inactive calls. No stated cut-off is given here; in the data, active means growth inhibition above about 70%; inactive means the rest.
Output constraint: value belongs to 1 for active, 0 for inactive

// below: answered compounds
Compound | Qualitative Label
NS(=O)(=O)c1ccc(N2C(=O)C3C(C2=O)C2(Cl)C(Cl)=C(Cl)C3(Cl)C2(Cl)Cl)cc1 (stereo not drawn) | 0
OC1COCOC1C(O)C1OCOCC1O (stereo not drawn) | 0
CC(=O)NC(Cc1cccc2ccccc12)C(=O)O (stereo not drawn) | 0
C/C(=N\N=C(/C)c1ccc(N)cc1)c1ccc(N)cc1 | 0

Problem: Dear colleague, could you share the recorded outcome for CCCCOC(=O)C(=O)/C(=C\n1c(=S)[nH]c2cc(C)ccc21)C(=O)C=C(C)C when you have a moment?
Solution: 0

Problem: For CCCCCCCCCC(=O)N/N=C/c1cccnc1 , what call appears in the results of this test?
Solution: 1

Problem: Field: outcome | Entry: NCCCNC1CCCCC1
Solution: 0

---

# Assay Details: NCI Yeast Anticancer Drug Screen. Data for the mlh1 rad18 strain (AID 175)
# Particulars: S. cerevisiae mlh1 rad18 strain growth inhibition; at 50.0 µM; hits give high values
Compounds without any hit were thinned out: in the full panel of roughly 79,000, 15% have a hit.
Classify by measured growth inhibition: true if it is equal to or exceeds 10%, false if it is smaller.

Compound | Qualitative Label
OCC1OC(n2cc(I)c3c(Cl)ncnc32)C(O)C1O (stereo unspecified) | false

Problem: Kindly determine if growth inhibition recorded for COC(=O)C(CSSCC(C(=O)NC(Cc1ccccc1)C(=O)NCC(=O)OC(C)(C)C)N1C(=O)CCC1=O)NC(=O)OCc1ccccc1 (stereo unspecified) is above or exactly 10%.
Solution: true

Problem: Decide: is the reported value of growth inhibition for CC(=C/c1ccccc1)/C=C1/NC(=S)N(CN2CCCCCC2)C1=O equal to or greater than 10%?
Solution: false

---

# Assay Details: NCI Yeast Anticancer Drug Screen. Data for the cln2 rad14 strain (AID 165);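 further: 0% = growth equal to vehicle treated cultures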
# Particulars: S. cerevisiae cln2 rad14 strain, at 50.0 µM, hits give high values
Compounds without any hit were thinned out: in the full panel of roughly 79,000, 15% have a hit.
Reported growth inhibition values for a set of compounds
Please state the figure in %; there is no need to write the unit.

Use the examples below as a reference point.
Compound | Unit Symbol | growth inhibition
CC(C)(C)c1cc(-c2cc(C(C)(C)C)nc(N)n2)nc(N)n1 | % | -18.7
Nc1c(OS(=O)(=O)c2ccccc2)cccc1OS(=O)(=O)c1ccccc1 | % | 20.7
NC(=O)N/N=C1/C=C2CCCCC2CC1 (stereo not given) | % | 10.8
O=C(Nc1ccc(Cl)cc1)OCCN(CCOC(=O)Nc1ccc(Cl)cc1)C(=O)Nc1ccc(Cl)cc1 | % | -3.25
Cc1cccc(C)c1Nc1nc(C)c(C(=O)CC(=O)C(=O)Nc2c(C(C)C)cccc2C(C)C)s1 | % | -15.7

Sure, the documented growth inhibition for CCCc1cc(=O)n(CCCc2ccccc2)c(=O)n1CCCc1ccccc1 is -36.1

growth inhibition for C[C@@]1(N2C(=O)OC(c3ccccc3)C2=O)C(=O)N2CCS[C@@]21c1ccccc1 (stereo not given in full) is 11.3

The reported value for CC(C)(O)C(c1ccccc1)S(=O)(=O)O (stereo not given) in terms of growth inhibition is -27.4

For reference, reported growth inhibition for O=c1c2ccccc2oc2nc3ccc(Cl)cc3n12 stands at -30.9

# growth inhibition (compound: Cc1nc([N+](=O)[O-])cn1CC(Cl)Cn1cc([N+](=O)[O-])nc1C ) is 9.7

---

# Assay Details: NCI Yeast Anticancer Drug Screen. Data for the mec2-1 strain (AID 157)
# Particulars: S. cerevisiae mec2-1 strain, at 50.0 µM, hits give high values
The panel holds about 79,000 compounds, 15% with a hit somewhere; the sample as a whole holds those more often.
The following molecules are listed with their measured growth inhibition values.
Give just the number in %; leave the unit off.

Entry Oc1cccc(O)c1 — recorded growth inhibition = -1

Per the records, this molecule ( Nc1nc(SCc2ccccc2)c2ncn(C3CC(O)C(CO)O3)c2n1 (configuration not stated) ) has growth inhibition equal to -1.2

# growth inhibition (molecule: COc1ccc(Nc2nc3ccccc3nc2-c2cccs2)cc1 ) is -3.8

Lab book: growth inhibition of CCN(CC)CCOC(=O)c1ccc(Cl)c(Cl)c1 noted as -5.9

// sample CCOC1CS(=O)(=O)CC(OCC)O1 (configuration not stated) , its growth inhibition was 6.05

Sample O=C(CC(=O)n1nc(-c2ccccc2)c(N=Nc2ccccc2Cl)c1-c1ccccc1)Nc1ccc(Cl)cc1 ; growth inhibition observed: 8.45

Short answer for Cc1ccc(C(=O)OC[C@H]2CC[C@@H](n3cc(N(C)C4CCCCC4)c(=O)[nH]c3=O)O2)cc1 : growth inhibition was -32.2

Recorded result, CC(C)Oc1ccc(C(N)=S)c2ccccc12 , growth inhibition: 4.75

growth inhibition reported for this molecule CCOC(=O)c1ccc(-n2nc(C)cc(Cl)c2=O)cc1 : -11.2

In plain terms, COc1ccc(/C=C2\N=C(SC)NC2=O)cc1 has a documented growth inhibition of 0.2

Lookup result for CCCCCCCCCCCCCCCCCCC1=C(O)C(=O)C=C(OC)C1=O ; measured growth inhibition: -6.5

The value of growth inhibition measured for the molecule CC(=O)c1ccccc1Cc1cccc2c(Cl)cccc12 turned out to be 6.05

---

# Assay Details: NCI Yeast Anticancer Drug Screen. Data for the rad50 strain (AID 155);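 further: 0% = growth of vehicle-only cultures of the same strain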
# Particulars: S. cerevisiae rad50 strain growth inhibition; at 50.0 µM; hits give high values
About 79,000 compounds went through this panel and 15% of them were active in at least one assay; those are over-represented in the sample as a whole.
Readout Kind: growth inhibition (%)
Unit % implied. Number only.

Recorded results for 2 molecules are shown here.
Molecule | growth inhibition [%]
CC1=NN(c2ccccc2C)C(=O)C1 | 2.05
CCCCCCCCNC(C(=O)c1ccc(Cl)cc1)c1ccc(Cl)cc1 (centres undefined) | 8.05

growth inhibition in this record for CC1(C)OC(=O)c2c(cc(N3CCOCC3)oc2=O)O1 : 3.35

# molecule COc1ccc(NC(=O)Nc2ccc(Br)cc2)cc1 ; its growth inhibition = -9.55

So for CC1=CC[P+](Cc2ccccc2)(c2ccccc2)C1 (centres undefined) , the logged growth inhibition turned out to be -25.4

Reported growth inhibition ( CCOC(=O)c1cn(C)c2c1C(O)=C(C(=O)OC)CC(=O)N2 ) = 4.5

Quick note, growth inhibition for OCCCCN1CCCCC1 landed at -1

The reported growth inhibition of the molecule CCOC(=O)CCC(C(=O)OCC)N1C(=O)c2ccccc2C1=O (centres undefined) was 1

Input O=C(OCc1ccccc1CN1CCCC1)c1ccc([N+](=O)[O-])cc1Cl . Output growth inhibition: -13

The molecule identified as C=CCSCC1Nc2cc(Cl)c(S(N)(=O)=O)cc2S(=O)(=O)N1C (centres undefined) registered its growth inhibition at 22.8

Recorded result, COc1cc(Nc2cc(Cl)cc(Cl)c2)nc(N)n1 , growth inhibition: 76.4

growth inhibition for C/C(CCc1ccccc1)=N/Nc1ccc([N+](=O)[O-])cc1[N+](=O)[O-] is 0.65

Record O=C(O)[C@@H]1OCCOCCO[C@@H](C(=O)O)[C@H](C(=O)O)OCCOCCO[C@H]1C(=O)O . Reported growth inhibition: 14.7

---

Listed compounds paired with reported growth inhibition
# Assay Details: NCI Yeast Anticancer Drug Screen. Data for the rad50 strain (AID 155);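 further: 0% = growth of vehicle-only cultures of the same strain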
# Particulars: S. cerevisiae rad50 strain growth inhibition; at 50.0 µM; hits give high values
The panel holds about 79,000 compounds, 15% with a hit somewhere; the sample as a whole holds those more often.
# value in %; strip the unit string

Compound | growth inhibition / %
COC1OC2COC(c3ccccc3)OC2C(OC(=O)c2ccc([N+](=O)[O-])cc2)C1OS(=O)(=O)c1ccc(C)cc1 (configuration not stated) | 39.6

Notebook: O=C(Nc1cccc(O)c1)C(O)C(O)C(O)C(O)CO (configuration not stated) , growth inhibition read as -10.8

Lab note: CCN(CC)C(=O)CC1(O)CCCCC1 gave growth inhibition of -9.7

get_value(item= CCOC(=O)NC(=S)C1=C(N2CCOCC2)CCC1 , readout=growth inhibition) returns -16.1

growth inhibition recorded for this compound, C=C1C(=O)OC2(C)CCC1CC1OC1(C)CCC=C(C)CCC2O (configuration not stated) , is 3.7

Consider CC(OP(=O)(O)O)C(N)C(=O)O (configuration not stated) . Its measured growth inhibition is 0.4

Memo: CC1(c2ccc[n+](Cc3ccccc3)c2)OCCO1 , reported growth inhibition: -15.7
